# assayRemarks: Binding ability to plasma proteins
# Format: in vitro ADME
# experimentalParameters: tentative value

# smilesString, fraction unbound
records = [
    ("Nc1nc(/C(=N/O)C(=O)N[C@@H]2C(=O)N3C(C(=O)O)=C(SCSc4c[nH]nn4)CC[C@H]23)cs1", 0.1),
    ("Nc1nc(/C(=N/O)C(=O)N[C@@H]2C(=O)N3C(C(=O)O)=C(SCSc4c[nH]nn4)CS[C@H]23)cs1", 0.04),
]
